// provenance: PubChem BioAssay (Tox21)

EXPERIMENTAL_PROTOCOL: qHTS assay to identify small molecule agonists of the estrogen related receptor (ERR) signaling pathway from Tox21 library (AID 1224849); also: % is scaled to controls: 0 for no effect and ±100 for the full control effect; nearly all actives have a fitted effect of over 15% in size
CONDITION_LABEL: ERR reporter cell line, ONE-Glo luciferase, 18 h; at 92.4 µM (top of the series) unless noted
Procedure: National Center for Advancing Translational Sciences [NCATS] NIH Chemical Genomics Center [NCGC] U.S. Environmental Protection Agency [EPA] National Institutes of Environmental Health Sciences [NIEHS] National Toxicology Program [NTP] […] The ERR cells were dispensed at 2,000 cells/5 ul/well in 1536-well white plates using a Multidrop dispenser. […] After 30-minute incubation at room temperature, the luminescence intensity in the plates was measured using a ViewLux plate reader.
Calls of active or inactive are those of the source. Calls follow the shape of the full dose curve.
PARAMETER: activity change, positive = activation

| COMPOUND | VALUE_REPORTED |
| --- | --- |
| CCOC(=O)C(SP(=S)(OC)OC)c1ccccc1 (configuration not stated) | -11.8% (inactive) |
| C=CCN1CC[C@]23CCCC[C@H]2[C@H]1Cc1ccc(O)cc13 | 5.12% [at 42.5 µM] (inactive) |
| CN(C)CCN(C)C | 9.25% (inactive) |
| C[C@H](CN1CCOCC1)C(C(=O)N1CCCC1)(c1ccccc1)c1ccccc1 | -33.1% (inactive) |
| CCCN1CCC[C@@H]2Cc3nc(N)ncc3C[C@H]21 | 3.55% [at 42.5 µM] (inactive) |
| O=[N+]([O-])CCO | 1.1% (inactive) |
| C=CC(=O)OCCN(C)C | 3.26% (inactive) |
| C=C1CC[C@@]2(O)[C@H]3Cc4ccc(O)c5c4[C@@]2(CCN3CC2CC2)[C@H]1O5 | 8.21% [at 42.5 µM] (inactive) |
| COC1=CC(=O)O[C@@H](/C=C/c2ccccc2)C1 | 12.9% (inactive) |
| O=c1[nH]oc2c1CCNC2 | 0.599% [at 42.5 µM] (inactive) |
| Cc1ccc(Cl)c(O)c1 | 6.81% [at 42.5 µM] (inactive) |
| CC1=C2[C@H]3OC(=O)[C@@H](C)[C@@H]3CC[C@@]2(C)C=CC1=O | 5.47% [at 42.5 µM] (inactive) |

---

SUBJECT_OF_TEST: Retinoic acid receptor RXR-alpha (Homo sapiens)
EXPERIMENTAL_PROTOCOL: qHTS assay to identify small molecule agonists of the RXR signaling pathway (AID 1159527); also: nearly all actives have a fitted effect of over 35% in size; also: potency is read from the fitted curve at half-maximal effect
CONDITION_LABEL: HEK293T RXRa-UAS-bla, beta-lactamase ratio, 16 h; series mostly up to 76.8 µM
Records with an inconclusive call do not appear. Active and inactive are the calls of the source. Calls follow the shape of the full dose curve.

| COMPOUND | SUBJECT_OF_TEST | Potency |
| --- | --- | --- |
| COC1=CC(=O)O[C@@H](/C=C/c2ccccc2)C1 | Retinoic acid receptor RXR-alpha (Homo sapiens) | inactive |
| Nc1c(Cl)c(F)nc(OCC(=O)O)c1Cl | Retinoic acid receptor RXR-alpha (Homo sapiens) | inactive |
| C=CC=O | Retinoic acid receptor RXR-alpha (Homo sapiens) | inactive |
| CCCOC(=O)c1cncn1C(C)c1ccccc1 (configuration not stated) | Retinoic acid receptor RXR-alpha (Homo sapiens) | inactive |
| CCCCCCCCSC(=O)Oc1cc(Cl)nnc1-c1ccccc1 | Retinoic acid receptor RXR-alpha (Homo sapiens) | inactive |
| Cc1ccc(-c2nc3ccc(C)cn3c2CC(=O)N(C)C)cc1 | Retinoic acid receptor RXR-alpha (Homo sapiens) | inactive |
| C=C1C[C@@H]2[C@H](CC[C@]3(C)C(=O)CC[C@@H]23)[C@@]2(C)C=CC(=O)C=C12 | Retinoic acid receptor RXR-alpha (Homo sapiens) | inactive |
| C#CCOC(=O)/C=C(C)/C=C/CC(C)CCCC(C)C (configuration not stated) | Retinoic acid receptor RXR-alpha (Homo sapiens) | 49 µM (active) |
| CCN(CC)CCOC(=O)C(O)(c1ccccc1)c1ccccc1 | Retinoic acid receptor RXR-alpha (Homo sapiens) | inactive |
| O=C1CCCCC1Cl (configuration not stated) | Retinoic acid receptor RXR-alpha (Homo sapiens) | inactive |
| CCOC(=O)CCl | Retinoic acid receptor RXR-alpha (Homo sapiens) | inactive |
| CCOP(=O)(CN(CCO)CCO)OCC | Retinoic acid receptor RXR-alpha (Homo sapiens) | inactive |
| Oc1ccc2c3c1O[C@H]1[C@@H](O)C=C[C@H]4[C@@H](C2)NCC[C@@]341 | Retinoic acid receptor RXR-alpha (Homo sapiens) | inactive |
| CS(=O)(=O)Cl | Retinoic acid receptor RXR-alpha (Homo sapiens) | inactive |
| CCNc1nc(Cl)nc(NC(C)(C)C)n1 | Retinoic acid receptor RXR-alpha (Homo sapiens) | inactive |
| CCCOC(=O)Cc1ccc(OCC(=O)N(CC)CC)c(OC)c1 | Retinoic acid receptor RXR-alpha (Homo sapiens) | inactive |
| CCOP(=S)(OCC)Oc1ccc(Cl)cc1Cl | Retinoic acid receptor RXR-alpha (Homo sapiens) | inactive |
| CCOC(=O)C(Cl)Cc1cc(-n2nc(C)n(C(F)F)c2=O)c(F)cc1Cl (configuration not stated) | Retinoic acid receptor RXR-alpha (Homo sapiens) | inactive |
| CC(Cl)(Cl)Cl | Retinoic acid receptor RXR-alpha (Homo sapiens) | inactive |
| COc1ccc(C=O)cc1O | Retinoic acid receptor RXR-alpha (Homo sapiens) | inactive |
| O=C(O)C(Cl)Br (configuration not stated) | Retinoic acid receptor RXR-alpha (Homo sapiens) | inactive |
| ClCCCCl | Retinoic acid receptor RXR-alpha (Homo sapiens) | inactive |
| O=c1[nH]c2ccccc2o1 | Retinoic acid receptor RXR-alpha (Homo sapiens) | inactive |
| O=C1CC(=O)NC(=O)N1 | Retinoic acid receptor RXR-alpha (Homo sapiens) | inactive |
| NC1(c2ccccc2)CCCCC1 | Retinoic acid receptor RXR-alpha (Homo sapiens) | inactive |
| CCCCOC(C)=O | Retinoic acid receptor RXR-alpha (Homo sapiens) | inactive |
| O=S1(=O)OCCO1 | Retinoic acid receptor RXR-alpha (Homo sapiens) | inactive |
| O=C1C2CC=CCC2C(=O)N1SC(Cl)(Cl)Cl (configuration not stated) | Retinoic acid receptor RXR-alpha (Homo sapiens) | inactive |
| CC(=NC#N)N(C)Cc1ccc(Cl)nc1 | Retinoic acid receptor RXR-alpha (Homo sapiens) | inactive |
| O=CCCl | Retinoic acid receptor RXR-alpha (Homo sapiens) | inactive |
| O=C(Cl)OCc1ccccc1 | Retinoic acid receptor RXR-alpha (Homo sapiens) | inactive |
| NC(=O)CS(=O)C(c1ccccc1)c1ccccc1 (configuration not stated) | Retinoic acid receptor RXR-alpha (Homo sapiens) | inactive |
| COc1cccc([C@@]2(O)CCCC[C@@H]2CN(C)C)c1 | Retinoic acid receptor RXR-alpha (Homo sapiens) | inactive |
| N#CN | Retinoic acid receptor RXR-alpha (Homo sapiens) | inactive |
| N[C@@H]1C[C@H]1c1ccccc1 | Retinoic acid receptor RXR-alpha (Homo sapiens) | inactive |
| CCN(CC)C1CCCCC1 | Retinoic acid receptor RXR-alpha (Homo sapiens) | inactive |
| CCOc1cc(OP(=S)(OC)OC)nc(CC)n1 | Retinoic acid receptor RXR-alpha (Homo sapiens) | inactive |
| CCC1(c2cccc(O)c2)CCCCN(C)C1 (configuration not stated) | Retinoic acid receptor RXR-alpha (Homo sapiens) | inactive |
| O=c1[nH]oc2c1CCNC2 | Retinoic acid receptor RXR-alpha (Homo sapiens) | inactive |
| C=CC(=O)OCCN(C)C | Retinoic acid receptor RXR-alpha (Homo sapiens) | inactive |
| CCC(=O)c1ccc(Cl)cc1 | Retinoic acid receptor RXR-alpha (Homo sapiens) | inactive |
| CCC1(c2ccccc2)CCC(=O)NC1=O (configuration not stated) | Retinoic acid receptor RXR-alpha (Homo sapiens) | inactive |
| COC(=O)c1ccccc1CS(=O)(=O)NC(=O)Nc1nc(OC)cc(OC)n1 | Retinoic acid receptor RXR-alpha (Homo sapiens) | inactive |
| BrCCc1ccccc1 | Retinoic acid receptor RXR-alpha (Homo sapiens) | inactive |
| CCOC(=O)COc1ccc(Cl)cc1Cl | Retinoic acid receptor RXR-alpha (Homo sapiens) | inactive |
| CCN[C@@H](C)Cc1cccc(C(F)(F)F)c1 | Retinoic acid receptor RXR-alpha (Homo sapiens) | inactive |
| ClC1=C(Cl)C2(Cl)C(CBr)CC1(Cl)C2(Cl)Cl (configuration not stated) | Retinoic acid receptor RXR-alpha (Homo sapiens) | inactive |
| C=CCCC#N | Retinoic acid receptor RXR-alpha (Homo sapiens) | inactive |
| CN1C(=O)COc2c(C(=O)NC3CN4CCC3CC4)cc(Cl)cc21 (configuration not stated) | Retinoic acid receptor RXR-alpha (Homo sapiens) | inactive |
| CN(CCO)CCO | Retinoic acid receptor RXR-alpha (Homo sapiens) | inactive |
| CN(C)C1CCCCC1 | Retinoic acid receptor RXR-alpha (Homo sapiens) | inactive |
| CON(C)C(=O)Nc1ccc(Br)cc1 | Retinoic acid receptor RXR-alpha (Homo sapiens) | inactive |
| O=C(CCl)NCO | Retinoic acid receptor RXR-alpha (Homo sapiens) | inactive |
| CCCC(C)C1(CC)C(=O)N=C(S)NC1=O (configuration not stated) | Retinoic acid receptor RXR-alpha (Homo sapiens) | inactive |
| CCCCS(=O)(=O)Cl | Retinoic acid receptor RXR-alpha (Homo sapiens) | inactive |
| CCCN1CCC[C@@H]2Cc3[nH]ncc3C[C@H]21 | Retinoic acid receptor RXR-alpha (Homo sapiens) | inactive |
| CC(C)[C@]12CC(=O)[C@H](C)[C@H]1C2 | Retinoic acid receptor RXR-alpha (Homo sapiens) | inactive |
